Values from ChEMBL document CHEMBL1153189

TESTED_SYSTEM: Cytochrome P450 3A4 (Homo sapiens, UniProt P08684)
Sequence (P08684 whole entry): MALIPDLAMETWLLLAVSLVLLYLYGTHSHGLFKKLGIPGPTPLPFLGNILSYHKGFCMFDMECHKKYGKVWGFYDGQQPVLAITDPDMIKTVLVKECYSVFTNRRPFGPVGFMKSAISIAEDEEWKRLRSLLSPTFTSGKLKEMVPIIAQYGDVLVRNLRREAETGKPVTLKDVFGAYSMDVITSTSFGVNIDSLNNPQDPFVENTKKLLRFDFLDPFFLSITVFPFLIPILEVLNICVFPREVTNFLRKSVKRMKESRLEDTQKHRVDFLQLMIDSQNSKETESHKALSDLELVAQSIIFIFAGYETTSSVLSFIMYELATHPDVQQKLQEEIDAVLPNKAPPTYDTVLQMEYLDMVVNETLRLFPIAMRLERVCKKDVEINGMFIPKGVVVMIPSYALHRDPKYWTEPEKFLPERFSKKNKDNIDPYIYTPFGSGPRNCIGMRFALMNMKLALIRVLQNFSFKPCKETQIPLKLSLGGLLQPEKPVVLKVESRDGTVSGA

COMPOUND | VALUE_UNIT | IC50
NC[C@H]1CC[C@]2(CC1)OOC1(O2)C2CC3CC(C2)CC1C3 (stereo partly specified) | µM | 9.7

----------
Tested on: Plasmodium berghei
PROCEDURE_DETAILS: Antimalarial activity against Plasmodium berghei infected in NMRI mice (Mus musculus) assessed as survival time at 3 mg/kg, perorally administered for 3 days post infection
Type: functional
TEST_PARAMETERS: route oral
MEASURED_METRIC: Survival (days)

COMPOUND | TESTED_SYSTEM | VALUE_UNIT | READING
Cc1ccc(S(=O)(=O)O)cc1.O=C(NC[C@H]1CC[C@]2(CC1)OO[C@]1(O2)C2CC3CC(C2)CC1C3)N1CCNCC1 | Plasmodium berghei | days | 27
CC(C)(N)CNC(=O)C(=O)NC[C@H]1CC[C@]2(CC1)OO[C@]1(O2)C2CC3CC(C2)CC1C3.CS(=O)(=O)O | Plasmodium berghei | days | 22.8
CS(=O)(=O)O.O=C(NC[C@H]1CC[C@]2(CC1)OO[C@]1(O2)C2CC3CC(C2)CC1C3)C(=O)NC1CCNCC1 | Plasmodium berghei | days | 22.4
Cc1ccc(S(=O)(=O)O)cc1.NCCC(=O)NC[C@H]1CC[C@]2(CC1)OO[C@]1(O2)C2CC3CC(C2)CC1C3 | Plasmodium berghei | days | 20.8
CCN(CC)CCCC(C)Nc1ccnc2cc(Cl)ccc12 (configuration not stated) [CHLOROQUINE] | Plasmodium berghei | days | 9.4
Cc1ccc(S(=O)(=O)O)cc1.N[C@H]1CC[C@H](NC(=O)C(=O)NC[C@H]2CC[C@]3(CC2)OO[C@]2(O3)C3CC4CC(C3)CC2C4)CC1 | Plasmodium berghei | days | 25.2
NC[C@H]1CC[C@]2(CC1)OOC1(O2)C2CC3CC(C2)CC1C3 (some centres not stated) | Plasmodium berghei | days | 12.8

----------
Test system: Plasmodium berghei
PROCEDURE_DETAILS: Antimalarial activity against Plasmodium berghei infected in NMRI mice (Mus musculus) assessed as cure rat at 3 mg/kg, perorally administered for 3 days post infection measured after 30 days
Assay type: functional
TEST_PARAMETERS: route oral

MOLECULE | TESTED_SYSTEM | Activity [%]
CCN(CC)CCCC(C)Nc1ccnc2cc(Cl)ccc12 (stereo not given) | Plasmodium berghei | 0
CS(=O)(=O)O.O=C(NC[C@H]1CC[C@]2(CC1)OO[C@]1(O2)C2CC3CC(C2)CC1C3)C(=O)NC1CCNCC1 | Plasmodium berghei | 20
CC(C)(N)CNC(=O)C(=O)NC[C@H]1CC[C@]2(CC1)OO[C@]1(O2)C2CC3CC(C2)CC1C3.CS(=O)(=O)O | Plasmodium berghei | 0
CC(C)(N)C(=O)NC[C@H]1CC[C@]2(CC1)OO[C@]1(O2)C2CC3CC(C2)CC1C3 | Plasmodium berghei | 0
NC[C@H]1CC[C@]2(CC1)OOC1(O2)C2CC3CC(C2)CC1C3 (stereo not given in full) | Plasmodium berghei | 0
